Recorded measurements of inhibition, one per entry
# Tested on: Methionine sulfoxide reductase A (Bos taurus)
# PROCEDURE TEXT: bovine MsrA enzyme inhibitors, primary screen, biochemical, absorbance, HTS (AID 651718);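 also: 0% = vehicle wells with enzyme and 100% = reference inhibitor wells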
# MEASUREMENT CONDITIONS: purified bovine MsrA, absorbance read-out; at 15.5 µM; active compounds read high
Hit rate of the full screen: of about 360,000 compounds, about 2,700 (0.75%) were called active. This excerpt belongs to a sample that is enriched for actives.

Worked cases, inhibition given:
COc1cccc(CNC(=O)[C@H]2CCCN2C(=O)[C@H]2CCCN2C(=O)C2CCCCC2)c1 ... -0.24% (inactive)
CC(C)(C)C(c1nc2ccccc2[nH]1)n1c(Cc2csc3ccccc23)nc2ccccc21 (centres undefined) ... -0.41% (inactive)
CCCCCCCCN1C(=O)[C@@H](CC(=O)NCc2ccc(C)o2)C[C@@]2(C(=O)OC)C1=C[C@H](C(C)(C)C)O[C@@H]2C ... -0.4% (inactive)

Proceed to the following item.
// query inhibition value for entry O=C(NS(=O)(=O)c1cccs1)[C@H]1O[C@@H](n2ccc(=O)[nH]c2=O)[C@H](O)[C@@H]1O
-0.74% (inactive)

###

# System: Methionine sulfoxide reductase A (Bos taurus)
# PROCEDURE TEXT: bovine MsrA enzyme inhibitors, primary screen, biochemical, absorbance, HTS (AID 651718);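 also: 0% = vehicle wells with enzyme and 100% = reference inhibitor wells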
# MEASUREMENT CONDITIONS: purified bovine MsrA, absorbance read-out; at 15.5 µM
The whole screen tested about 360,000 compounds, of which about 2,700 (0.75%) were called active. Cut-off read from the data, not from the text of the source: active = inhibition above about 4.5%; inactive = the rest. Shown is part of a subset that was picked to be rich in actives.
// one of 1.0 (active), 0.0 (inactive), no free text

The following molecules have reported results that may help.
CC1(C)CC(=O)C=C(c2ccc3ncccc3c2)C1 ... 0.0
N#Cc1cccc(C(=O)NCC2CCN(C(=O)C(=O)c3cc4ccccc4o3)CC2)c1 ... 0.0
COc1ccc(/C=C(/NC(=O)c2ccccc2)C(=O)Nc2cccc(C(=O)O)c2)cc1 ... 0.0

What was the test verdict on CC1CCCCN1S(=O)(=O)c1ccc(S(=O)(=O)N(CC(=O)Nc2ccccc2)Cc2cccs2)cc1 (stereo not given) ?
0.0

What was the test verdict on CCC1SC2=NCCN2C1(O)c1ccc(Cl)cc1 (stereo not given) ?
0.0

###

Recorded measurements of inhibition, one per entry
# System: Methionine sulfoxide reductase A (Bos taurus)
# PROCEDURE TEXT: bovine MsrA enzyme inhibitors, primary screen, biochemical, absorbance, HTS (AID 651718);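 also: 0% = vehicle wells with enzyme and 100% = reference inhibitor wells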
# MEASUREMENT CONDITIONS: purified bovine MsrA, absorbance read-out; at 15.5 µM; active compounds read high
The whole screen tested about 360,000 compounds, of which about 2,700 (0.75%) were called active. Many of the other results were omitted from the sample, so actives are more common in it than they were.
Return type: number; implicit unit %.

O=C(C(=O)N1CCC(CNC(=O)c2cccnc2Cl)CC1)c1cccs1 ... 0.64
Cc1ccc(Nc2ccc(C(N)=O)cc2[N+](=O)[O-])cc1 ... 11.1
Cc1ccc(Nc2cc(C)nc3c(C)ccc([N+](=O)[O-])c23)cc1 ... -0.67
C/C(=N\Nc1nc2ccccc2[nH]1)c1cccs1 ... 4.27
Cc1cc2c(C)nc(N/N=C/c3ccccc3)nc2o1 ... 3.05
CC(Oc1ccccc1[N+](=O)[O-])C(=O)N/N=C/c1ccoc1 (centres undefined) ... 1.1
CNC(=S)N/N=C/c1ccc(N2CCOCC2)s1 ... 3.27
Cc1nnsc1C(=O)N/N=C/c1cccc(C(F)(F)F)c1 ... -1.17
CC(C(=O)NC1CCCC1)N1CCN(S(=O)(=O)c2ccccc2Cl)CC1 (centres undefined) ... -0.92
N#Cc1c(N)nc2c3c(sc(=N)c2c1N)NC(=O)CC3c1ccccc1Cl (centres undefined) ... 6.25

Proceed to the following item.
Could you share what inhibition was measured for COc1ccccc1-c1cnn2c(N3CCOCC3)cc(C)nc12 , tested on Methionine sulfoxide reductase A (Bos taurus)?
1.96
